Reference source for all entries: patent US20210324054A1

What kon was measured for each of the following?
Molecular target: DN-IV quality control recombinant protein (produced by the company) (dengue virus)
Test: BLI, antibody on AMC sensor
Supply the numeric figure in M⁻¹ s⁻¹, leaving out any unit text.

Provide kon value for the following binder: Mutation 1-1 (antibody, V domains shown) VH: EVQLQQPGPELVKPGASVKMSCKASGYTFTSSVIHWVRQKPGQGLEWIGYMNPYNDGIKYNEKFIGKAILTSDKSSSTAYMQLSSLTSEDSAVYYCTKEGLFYVFDYWGQGTSVTVSS VL: QIVLTQSPAIMSASPGEKVTMTCSATSSLSYMHWYQQKSGTSPKRWIYDSSKLASGVPVRFSGSGSGTSYSLTISSMEAEDAATYFCQWWRSDLPTFGAGTKLELKR
407000

Identify the reported kon for the following entry. Mutation 1-18 (antibody, V domains shown) VH: EVQLQQPGPELVKPGASVKMSCKASGYTFTSTVIHWVRQKPGQGLEWIGYMNPYNDGLKYNEKFIGKAILTSDKSSSTAYMQLSSLTSEDSAVYYCTKEGLFYVFDYWGQGTSVTVSS VL: QIVLTQSPAIMSASPGEKVTMTCSATSSLSYMHWYQQKSGTSPKRWIYDSSKLASGVPVRFSGSGSGTSYSLTISSMEAEDAATYFCQYWRSDLPTFGAGTKLELKR
425000

Assign kon to the following record: Mutation 1-38 (antibody, V domains shown) VH: EVQLQQPGPELVKPGASVKMSCKASGYTFTSYVIHWVRQKPGQGLEWIGYMNPYNDGLKYNEKFIGKAILTSDKSSSTAYMQLSSLTSEDSAVYYCTKEGLFYVMDYWGQGTSVTVSS VL: QIVLTQSPAIMSASPGEKVTMTCSATSSISYMHWYQQKSGTSPKRWIYDSSKLASGVPVRFSGSGSGTSYSLTISSMEAEDAATYFCQWWRSDLPTFGAGTKLELKR
454000

For the binder Mutation 1-47 (antibody, V domains shown) VH: EVQLQQPGPELVKPGASVKMSCKASGYTFTSYVIHWVRQKPGQGLEWIGYMNPYNDGIKYNEKFIGKAILTSDKSSSTAYMQLSSLTSEDSAVYYCTREGLFYVFDYWGQGTSVTVSS VL: QIVLTQSPAIMSASPGEKVTMTCSATSSISYMHWYQQKSGTSPKRWIYDSSKLASGVPVRFSGSGSGTSYSLTISSMEAEDAATYFCQYWRSDLPTFGAGTKLELKR , give its reported kon.
370000

Give the value of kon reported for the following: Mutation 1-49 (antibody, V domains shown) VH: EVQLQQPGPELVKPGASVKMSCKASGYTFTSSVIHWVRQKPGQGLEWIGYMNPYNDGIKYNEKFIGKAILTSDKSSSTAYMQLSSLTSEDSAVYYCTREGLFYVFDYWGQGTSVTVSS VL: QIVLTQSPAIMSASPGEKVTMTCSATSSVSYMHWYQQKSGTSPKRWIYDTSKLASGVPVRFSGSGSGTSYSLTISSMEAEDAATYFCQQWRSDLPTFGAGTKLELKR
391000

Please give measured kon of the following entry: Mutation 1-48 (antibody, V domains shown) VH: EVQLQQPGPELVKPGASVKMSCKASGYTFTSTVIHWVRQKPGQGLEWIGYMNPYNDGLKYNEKFIGKAILTSDKSSSTAYMQLSSLTSEDSAVYYCTKEGLFYVMDYWGQGTSVTVSS VL: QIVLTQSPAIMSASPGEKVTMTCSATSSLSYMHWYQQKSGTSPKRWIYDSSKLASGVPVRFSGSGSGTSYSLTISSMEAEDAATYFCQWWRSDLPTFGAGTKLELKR
373000

Give me measured kon, please, for this binder: Mutation 1-21 (antibody, V domains shown) VH: EVQLQQPGPELVKPGASVKMSCKASGYTFTSTVIHWVRQKPGQGLEWIGYMNPYNDGIKYNEKFIGKAILTSDKSSSTAYMQLSSLTSEDSAVYYCTREGLFYVMDYWGQGTSVTVSS VL: QIVLTQSPAIMSASPGEKVTMTCSATSSLSYMHWYQQKSGTSPKRWIYDTSKLASGVPVRFSGSGSGTSYSLTISSMEAEDAATYFCQWWRSDLPTFGAGTKLELKR
388000

Specify kon for Mutation 1-51 (antibody, V domains shown) VH: EVQLQQPGPELVKPGASVKMSCKASGYTFTSTVIHWVRQKPGQGLEWIGYMNPYNDGLKYNEKFIGKAILTSDKSSSTAYMQLSSLTSEDSAVYYCTREGLFYVMDYWGQGTSVTVSS VL: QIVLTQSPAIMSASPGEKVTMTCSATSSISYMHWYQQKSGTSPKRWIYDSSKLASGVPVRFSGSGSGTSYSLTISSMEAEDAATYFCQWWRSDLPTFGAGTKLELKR and stop.
402000

Output measured kon for this item: WT 1-19 (antibody, V domains shown) VH: EVQLQQPGPELVKPGASVKMSCKASGYTVTSYVIHWVRQKPGQGLEWIGYMNAYNDGIKYNDKFIGKAILTSDKSSSTAYMQLSSLTSEDSAVYYCTKEGLFYVMDYWGQGTSVTVSS VL: QIVLTQSPAIMSASPGEKVTMTCSGTSSVSYMHWYQQKSGTSPKRWIYDSSKLASPVPVRFSGSGSGTSYSLTISSMEAEDAATYFCQQWRSVLPTFGAGTKLELKR
4570

Could you please provide reported kon for Mutation 1-10 (antibody, V domains shown) VH: EVQLQQPGPELVKPGASVKMSCKASGYTFTSSVIHWVRQKPGQGLEWIGYMNPYNDGIKYNEKFIGKAILTSDKSSSTAYMQLSSLTSEDSAVYYCTKEGLFYVMDYWGQGTSVTVSS VL: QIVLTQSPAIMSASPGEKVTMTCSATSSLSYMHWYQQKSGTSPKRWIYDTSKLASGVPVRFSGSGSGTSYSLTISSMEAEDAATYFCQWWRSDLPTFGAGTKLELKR ? Thanks!
48700
